// data source = paper PMC10855902

Biological target: T1, Recombinant human EGFR protein (Active) (ab155639) (human, UniProt P00533 25-645, labelled with RED-tris-NTA 2nd Generation dye)
T1 construct: epidermal growth factor receptor (EGFR, ErbB-1), human, recombinant; also called EGF receptor; ErbB-1; source: bought: Abcam (ab155639), recombinant
Assay: MST; RED-tris-NTA-labelled EGFR 25 nM, ligand in a 16-step 1:1 dilution series in PBS-T, 30 min at room temperature; assay concentration of the ligand 50 μM
Conditions: both partners purified
pKd: −log10 of the molar value.
Catalogue of binders with associated pKd
RECORDED_METRIC: pKd

BINDER | QUANTITATIVE_RESULT
HDGYCLHDGVCMY (EGF, human, residues 10-22; numbers count on: the mature protein; source: synthetic peptide (SPPS, Fmoc; crude, without preparative HPLC)) [EGF fragment 10–22 (HDGYCLHDGVCMY)] | 7.15
VVGYIGERCQYRDL (EGF, human, residues 34-47; numbers count on: the mature protein; source: synthetic peptide (SPPS, Fmoc; crude, without preparative HPLC)) [EGF fragment 34–47 (VVGYIGERCQYRDL)] | 5.23
HDGYCL (EGF, human, residues 10-15; numbers count on: the mature protein; also called 10–15 EGF fragment; source: synthetic peptide (SPPS, Fmoc; crude, without preparative HPLC)) [EGF fragment 10–15 (HDGYCL)] | 7.18
